These entries and their values trace back to ChEMBL document CHEMBL1201862.

Provide the reported GI50 of each item.
Tested on: IGROV-1
experiment.description: NCI tumour cell line growth inhibition, 48 h
Where a name gives a salt, the structure may show the parent alone. Active and inactive are the calls of the source. Cut-off read from the data, not from the text of the source: active = GI50 up to about 1.1 µM and inactive = higher.

Reported GI50 for O=C1c2c(O)cccc2-c2nn(CCNCCO)c3ccc(NCCNCCO)c1c23 [LOSOXANTRONE HYDROCHLORIDE] was 0.337 µM (active)

Lab note: measured GI50 of "COc1cc(/C=C(\C#N)C(N)=O)cc(Br)c1O" was > 100 µM (inactive)

Short answer for COC(=O)C1(C)CC2C(C)(CCC3(C)C4=CC=C5C(=CC(=O)C(O)=C5C)C4(C)CCC23C)CC1O (configuration not stated) : GI50 was 0.331 µM (active)

Entry "COc1ccc2c(c1)C(N)=C(c1ccccc1)C2=O" — recorded GI50 = 63.5 µM (inactive)

According to the records, this compound O=C1c2[nH]c3ccccc3c2CCN2CCCCC12 (configuration not stated) displays GI50 of 20.2 µM (inactive)

Reported GI50 of Cc1ccc(/C=N\NC2c3cc(Cl)ccc3Nc3nc(O)nc(C)c32)cc1 (configuration not stated) : 84.3 µM (inactive)

Notebook: "COC(=O)C1=C(C(=O)OC)SC(=C(/N=N/c2ccccc2)c2ccccc2)S1" , GI50 read as > 100 µM (inactive)

###

Tested on: M19-MEL
experiment.description: NCI tumour cell line growth inhibition, 48 h
Calls of active or inactive are those of the source. No stated cut-off is given here; in the data, active = GI50 up to about 1.1 µM and inactive = higher.
metric.name: GI50

Hey, M19-MEL data for "CC1(C)C=C(N2CCN(C3=CC(C)(C)NC(C)(C)C3)CC2)CC(C)(C)N1" : GI50 came out at > 100 µM (inactive)

Here "Cc1c(C2=NN=C(/N=N/c3c(O)cccc3O)/C2=C/c2ccccc2)c(=O)n(-c2ccccc2)n1C" was tested on M19-MEL, and its GI50 came to > 100 µM (inactive)

The measured GI50 that COc1c(CC=C(C)C)c(O)c(C(CC(C)C)c2c(O)c(CC=C(C)C)c(O)c(C(C)=O)c2O)c(O)c1C(C)=O (stereo not given) showed for M19-MEL is 1.43 µM (inactive)

Entry "COc1cc(/C=C2\[C@@H]3NC(Cc4c(OC)c(C)c(OC)c(OC)c43)C(=O)N2Cc2ccccc2)c(OC)c(C)c1OC" , tested on M19-MEL, has a reported GI50 of 28.5 µM (inactive)

Kindly note: M19-MEL, "COC(=O)C1=C(C(=O)OC)SC(=C(/N=N/c2ccccc2)c2ccccc2)S1" , GI50 value reported: > 100 µM (inactive)

###

Test system: T47D
experiment.description: NCI tumour cell line growth inhibition, 48 h
The source made the active and inactive calls. Cut-off read from the data, not from the text of the source: active = GI50 up to about 1.1 µM and inactive = higher.
metric.name: GI50

Note to self: GI50 recorded for "Cc1ccccc1NC(=S)N/N=C1\C(=O)Nc2ccccc21" was > 100 µM (inactive)

Summary for this compound, "O=C1C=CC[C@H]2O[C@@H](COC(=O)Cc3ccccc3)C[C@H]2O1" : GI50 is 58.1 µM (inactive)

response.value for "O=C1OC(c2ccccc2)=N/C1=C\c1cn[nH]n1" (field: GI50) = > 100 µM (inactive)

According to the records, this compound "COc1cc([N+](=O)[O-])c(OC)c2c(Nc3ccc(S(=O)(=O)O)c4cc(S(=O)(=O)O)cc(S(=O)(=O)O)c34)cc(C)nc12" displays GI50 of > 100 µM (inactive)

Given item "CCOC(=O)[C@H](O)[C@@H](O)C(=O)NCc1ccc(C(=O)c2ccccc2)cc1" , the value recorded as its GI50 is > 100 µM (inactive)

Data point: "COc1ccc2[nH]c3c([N+](=O)[O-])ccc(NCCCN(C)C)c3/c(=N/CCCN(C)C)c2c1" ; GI50 = > 10 µM (inactive)

GET /value?item= "O=C(Nn1c(-c2ccccc2)nc2ccccc2c1=O)c1ccc(O)cc1" &field=GI50 returns > 100 µM (inactive)

// "O=C1OC2(c3ccc(O)cc3Oc3cc(O)ccc32)c2c1c(-c1ccccc1)c(-c1ccccc1)c(-c1ccccc1)c2-c1ccccc1" : GI50 value = 26.5 µM (inactive)

Entry "O=C(Cn1cc(F)c(=O)[nH]c1=O)C12CC3CC(CC(C3)C1)C2" , GI50 reported as > 100 µM (inactive)
